test system: red blood cells (RBC); assay: Hemolytic analysis; conditions: male, Sprague-Dawley, rat, isolated red blood cells (RBC) suspension
Property Name: hemolysis at 30 min, 100 µg/mL

-- ask Give the value of hemolysis at 30 min, 100 µg/mL reported for the following: O=C(CCCCCCC(=O)Nc1ccccc1)NO
-- reply ~40%

###

system: red blood cells (RBC); test: Hemolytic analysis; conditions: male, Sprague-Dawley, rat
Property Name: hemolysis at 30 min, 100 µg/mL

-- ask Give the value of hemolysis at 30 min, 100 µg/mL reported for the following: CC(=O)O[C@H]1C(=O)[C@@]2(C)[C@H]([C@H](OC(=O)c3ccccc3)[C@]3(O)C[C@H](OC(=O)[C@H](O)[C@@H](NC(=O)c4ccccc4)c4ccccc4)C(C)=C1C3(C)C)[C@]1(OC(C)=O)CO[C@@H]1C[C@@H]2O
-- reply ~25%
